biological target: UniProtKB P08588; experiment: Agonist activity at human adrenergic receptor expressed in CHO cells assessed as cAMP accumulation
pEC50: −log10 of the molar value.
As shown below, each of these compounds has a reported pEC50 value.

# example entries with known answers
CS(=O)(=O)Nc1ccc(OC[C@@H](O)CNCCc2ccc(NC(=O)Cc3ccccn3)cc2)cc1 :: < 4.00
O=C(Cc1ccccn1)Nc1ccc(CCNC[C@H](O)COc2ccccc2)cc1 :: < 4.00

Let's switch to this compound now.
# pEC50 of `O=C(Cc1ccccn1)Nc1ccc(CCNC[C@H](O)COc2cccc3[nH]ccc23)cc1` = < 4.00

Entry source: ChEMBL document CHEMBL1138625
